# Method description: recombinant barcode read abundance after kanamycin selection (control-corrected) (log10(CPM+1)); higher = more efficient recombination; sequences stand for … in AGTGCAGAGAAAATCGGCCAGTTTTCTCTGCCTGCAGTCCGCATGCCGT…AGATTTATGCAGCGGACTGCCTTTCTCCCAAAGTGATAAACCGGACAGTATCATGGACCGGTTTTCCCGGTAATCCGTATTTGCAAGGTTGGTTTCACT; site = the 11-nt target;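 note: IS621 recombinase and bridge RNA in Escherichia coli cells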
# if value of recombinant barcode read abundance (log10) reaches 0.2, tag criterion met; if it stays below, tag criterion not met

Use the examples below as a reference point.
Query :: Say whether GGCAGCTCTTGGGTTCTAACCTGTTGCTT (site GGCAGTTCTAA) shows recombinant barcode read abundance (log10) of 0.2 or more.
Result :: criterion not met

Query :: Say whether GACGAGTCTTGGGTTCTAACCTGTTGCTA (site GACGAGTCTTA) shows recombinant barcode read abundance (log10) of 0.2 or more.
Result :: criterion met

Query :: Say whether GTGTCGCCTTGGGTTCTAACCTGTTGCGT (site GTGTCGCCTAG) shows recombinant barcode read abundance (log10) of 0.2 or more.
Result :: criterion not met

Query :: Say whether CCGTCATCTTGGGTTCTAACCTGTTGCCT (site CCGTCGTCTAG) shows recombinant barcode read abundance (log10) of 0.2 or more.
Result :: criterion met

Query :: Say whether CTAACCACTTGGGTTCTAACCTGTTGCCA (site CTAACTACTAG) shows recombinant barcode read abundance (log10) of 0.2 or more.
Result :: criterion not met

---
Query :: Say whether GGCACAACTTGGGTTCTAACCTGTTGCCT (site GGCACCACTAG) shows recombinant barcode read abundance (log10) of 0.2 or more.
Result :: criterion not met

Query :: Say whether CCGGACCCTTGGGTTCTAACCTGTTGCCT (site GCGGACGCTAG) shows recombinant barcode read abundance (log10) of 0.2 or more.
Result :: criterion met

Query :: Say whether TACTATCCTTGGGTTCTAACCTGTTGCCT (site TACTATTCTAG) shows recombinant barcode read abundance (log10) of 0.2 or more.
Result :: criterion not met

Query :: Say whether CCTAAGCCTTGGGTTCTAACCTGTTGCGT (site CCTAACCCTAC) shows recombinant barcode read abundance (log10) of 0.2 or more.
Result :: criterion met

Query :: Say whether AGAAGTCCTTGGGTTCTAACCTGTTGCAG (site AGAAGTCCTCC) shows recombinant barcode read abundance (log10) of 0.2 or more.
Result :: criterion met
